Target: human Retinoid X Receptor beta (RXRb), RXRB (gene 6257) (UniProt P28702)
Sequence (P28702 whole entry, looked up): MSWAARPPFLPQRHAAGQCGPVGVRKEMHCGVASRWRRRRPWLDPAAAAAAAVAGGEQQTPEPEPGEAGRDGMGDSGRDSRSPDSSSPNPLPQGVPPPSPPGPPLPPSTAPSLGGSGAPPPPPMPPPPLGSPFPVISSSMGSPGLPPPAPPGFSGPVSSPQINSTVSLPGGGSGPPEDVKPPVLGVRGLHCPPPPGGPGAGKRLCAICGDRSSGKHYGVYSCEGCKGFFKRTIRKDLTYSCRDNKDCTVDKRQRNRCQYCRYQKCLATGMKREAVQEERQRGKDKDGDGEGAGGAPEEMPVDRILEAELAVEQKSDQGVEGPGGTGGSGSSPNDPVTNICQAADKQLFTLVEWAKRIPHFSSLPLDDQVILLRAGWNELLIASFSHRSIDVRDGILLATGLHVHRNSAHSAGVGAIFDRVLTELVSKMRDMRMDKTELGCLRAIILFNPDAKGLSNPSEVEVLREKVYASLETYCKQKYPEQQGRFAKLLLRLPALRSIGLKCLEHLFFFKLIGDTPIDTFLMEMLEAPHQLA
Assay: ATG_RXRb_TRANS: Attagene TRANS-FACTORIAL HepG2 Assay for human Retinoid X Receptor beta (RXRb) (AID 2283013)
Records with an inconclusive call do not appear. Active and inactive are the calls of the source. Rule for the calls: active = hit-call score of the fitted dose curve at least 0.9, where 1 is the maximum; inconclusive = response in the unintended direction; inactive = score below 0.9.
Outcomes: active, inactive

- Compound: "CC(C)(C)c1ccc(CCC=O)cc1"
  Group: "active"
- Compound: "Nc1ccn([C@@H]2O[C@H](CO)[C@@H](O)C2O)c(=O)n1 (stereo partly drawn)"
  Group: "inactive"
- Compound: "Cc1ccccc1OCC(=O)O"
  Group: "inactive"
- Compound: "C=COC(=O)C(C)(C)CCCCCC"
  Group: "active"
- Compound: "CCCCCCCCCCCC"
  Group: "inactive"
- Compound: "FC(F)(F)C(F)(F)C(F)(F)Br"
  Group: "inactive"
- Compound: "CCCCCCCCCCCC(=O)O"
  Group: "inactive"
- Compound: "CCOC=C(C(=O)OCC)C(=O)OCC"
  Group: "inactive"
- Compound: "O=C(O)CCC(F)(F)C(F)(F)C(F)(F)C(F)(F)C(F)(F)C(F)(F)F"
  Group: "active"
- Compound: "CCCCCCC(C)(C)C(=O)O"
  Group: "inactive"
- Compound: "COc1cc([N+](=O)[O-])ccc1N"
  Group: "inactive"
- Compound: "Clc1ccc2c(Cl)ccnc2c1"
  Group: "inactive"
- Compound: "O=C1Cc2ccccc2N1c1c(Cl)cccc1Cl"
  Group: "inactive"
- Compound: "CCCCN(C)C"
  Group: "inactive"
- Compound: "Nc1ccc(O)c(C(=O)O)c1"
  Group: "inactive"
- Compound: "Cc1cccc2c1ccc1ccccc12"
  Group: "active"
- Compound: "O=P(O)(O)CCC(F)(F)C(F)(F)C(F)(F)C(F)(F)C(F)(F)C(F)(F)C(F)(F)C(F)(F)F"
  Group: "inactive"
- Compound: "O=C(O)c1cccc(C(=O)O)n1"
  Group: "inactive"
